Assay: Pharmacokinetics in beagle dogs (single doses)
Format: in vivo
Conditions: beagle, dog, plasma; oral 100 mg, Dv50=46 μm; read-out: bioavailability
MEASURED_ENDPOINT: bioavailability

Q: Name the recorded bioavailability of the item Cn1cc(S(=O)(=O)[C@@](C)(F)C2CCN(C(=O)Nc3ccon3)CC2)c(C(F)F)n1 in your answer.
Ans: ~40%

----------
Experiment: HFrEF study Part 2 (MAD Cohorts A-D): plasma pharmacokinetics
Assay type: in vivo, human
Settings: human, plasma, oral, 100 mg, MAD Cohort D, 100 mg BID (with food); individual subjects; read-out: Cmax, Day 1
MEASURED_ENDPOINT: Cmax (ng/mL)
Lab book: enter the figure in ng/mL, no units written.

Q: Name the recorded Cmax of the item Cn1cc(S(=O)(=O)[C@@](C)(F)C2CCN(C(=O)Nc3ccon3)CC2)c(C(F)F)n1 in your answer.
Ans: 1560
